# method_notes: soluble on expression in E. coli; label from the status in PepcDB or PDB records
measure_name: soluble on expression in E. coli

{"residue_sequence": "MGSDKIHHHHHHMDILRKVAEIHGTPTYVYFEETLRKRSRLVKEVFEGVNLLPTFAVKANNNPVLLKILREEGFGMDVVTKGELLAAKLAGVPSHTVVWNGNGKSRDQMEHFLREDVRIVNVDSFEEMEIWRELNPEGVEYFIRVNPEVDAKTHPHISTGLKKHKFGIPLEDLDSFMERFRSMNIRGLHVHIGSQITRVEPFVEAFSKVVRASERYGFEEINIGGGWGINYSGEELDLSSYREKVVPDLKRFKRVIVEIGRYIVAPSGYLLLRVVLVKRRHNKAFVVVDGGMNVLIRPALYSAYHRIFVLGKQGKEMRADVVGPLCESGDVIAYDRELPEVEPGDIIAVENAGAYGYTMSNNYNSTTRPAEVLVRENGRISLIRRRETEMDIFKDVVM", "value_measured": "not soluble"}
{"residue_sequence": "MKITAVETLYCNAGWRNLSFLKISTDEGLVGWAEFPENHINNVLSPLVRHMGQQILGEDPRRIHPVIDRLRRAAWGVPFGAVSRAIGAIENALVDIKAKAIGVPAYELIGGRMRDDIRMYWSHCGSYHVTNWKDLGVPRITSLDDVKSLGRQVRESGYHALKTNLMMFDRPEPYMYRPGFAGGSGDPDRNPLRSAISAAVDQMTAFREGAGPDIGLKLDVNFNFRPEGYIRLAHALEPVDLDWLEIDNFDAKAVAQVRRASRIPIASCETLSGRRQLRPYLEEQAVDVVIIDVPWNGIYEAMRMAALADSFEVNVATHNFCGPIATLISAHFCAAVPNFRVMEMDVVQVPWTNDLITNPPTIERGYMRLPDGPGWGADVNEEALRAHPPVAAKH", "value_measured": "not soluble"}
{"residue_sequence": "KETAAAKFERQHMDSGGGGSGHMENGYTYEDYKNTAEWLLSHTKHRPQVAIICGSGLGGLTDKLTQAQIFDYGEIPNFPRSTVPGHAGRLVFGFLNGRACVMMQGRFHMYEGYPLWKVTFPVRVFHLLGVDTLVVTNAAGGLNPKFEVGDIMLIRDHINLPGFSGQNPLRGPNDERFGDRFPAMSDAYDRTMRQRALSTWKQMGEQRELQEGTYVMVAGPSFQTVAECRVLQKLGADAVGMSTVPEVIVARHCGLRVFGFSLITDKVIMDYESLEKANHEEVLAAGKQAAQKLEQFVSILMASIPLPDKAS", "value_measured": "soluble"}
{"residue_sequence": "MSVNFFSLITSSWERGLFLKSCKNNSGTDSNRFFSFSVPPNLLDNLLPPLLVRKTLSSSSSKSCGIGGIYFKSSAVNVSEDGLTASTFFSILLPKNFLGITKLFCRIFLLSCPHNYKWFIHLINPFEYENFINIE", "value_measured": "soluble"}
{"residue_sequence": "MIELYSNAKLPTEFGLFRIYTFVNDENKDHAVIVRGDPRGKENVPLRIHSECLTGDVLGSLRCDCRDQLIQSLRYLGRQEYGMLIYLRQEGRGIGLLNKIKAYSLQDMGADTVEANLKLGLPVDSRNYSFAAEVLRYFEIKSIYIMTNNPEKIKSLIESGINVKGRIPIFSDPTPYDKFYLETKKTKLGHEIENILEHHHHHH", "value_measured": "soluble"}
{"residue_sequence": "MAVQFEFYKNPVQGEEEGETSYHPRVVNFQHVTTQRLAVEIHSATTFGKAEVEAMLMELSRCMGNHLREGQRVHLDGVGYFQITLQATEPIHSMAAHADKVKFKSVSFLADRDLKGELIGMHAQRSKYKPHSATLSQEEIDKKLTGYFATHTVLTRSDMQSLCQFTHSMAARHIRRLKEEGSLQNIGIRTQPIYVPCPGHYGK", "value_measured": "not soluble"}
{"residue_sequence": "MTEVILFFFATPKRATFSLELTSMKKLATLLAGSACALSLLSGTAAAEDKELVFMNWGPYINSGILEQFTKETGIKVIYSTYESNETLYAKLKTHNQGYDLVVPSTYFVAKMRDEGMLQKIDKSKLSNFKNLDSNYLDKPYDPNNDYSIPHVVAITGLAVNTDMYDPNDFQSWGDLWKPELKGQLMLMDDTREVFHIALRKLGYSGNSTDDKQIDEAYAELQKLMPNVLVFNSDNPAAPYLSGEVGLGMLWNGSAAAAQKEGLPIKLVFPKEGGIGWVDNFAISSGAKNVDAAHKMIDFLLRPEIAEQISRDTGYLTGVKASNDKFQDVAPLFPSQEDLDRVEWQSAVGDKTVKYEEYFMKLKAGQ", "value_measured": "not soluble"}
{"residue_sequence": "MGSDKIHHHHHHMLDDHTQLEFPASGMTELPLIWQPQVIRCKAAGPGGRPLLVLLDTGTDPSAIDLTLARRLDLRLGDFALGSDATCDTVPFTETVLPWLRLGEVMLRNLYLMAVDLRQMPFPVDLVLGYNVLHRLNLTIDYAGQTVRLCHPDLAPPPPGAEGASVPLRFFEHFPALPAQIIAPSGATHDVILTIDTGSNGALTVSRDLAASLHLDLHTVQAATGHGFAAATPVSRGFTVDLQLGPFRLPAVEVDVPATSHGDLGRQGRANVGNRLLSRFRRLTLDYRREVCILDR", "value_measured": "not soluble"}
{"residue_sequence": "AIALTTNASSKIFSKASTAELVGHTRKVHCLSWNPKGGLLGSGGVDCVARIWDVEKLQQKAELEGHTSSIEQLKWDPTANVFFVSASLDHKVLFWDLRARNSEPVASVETQGENINLAWSQDGVYCAVGDKDDNLSFIDVRKFDFFERFQFAEEVNEFKWSPSGPFFFMTLGKEVLVFRWPTMEQQLRLQVHADRCYCLEFDRSGRYFALGGADSIISLWETEYMLCTWTVDRLEYPIRTISFSHDGQFIAAGSEDSVIDISDILNGRQTYALGVKGATNVVAWHPSRHLLAYATEEEYSRDGVAIHLYGTISKDNI", "value_measured": "soluble"}
{"residue_sequence": "MGSDKIHHHHHHMAYPFNHKEFVAMMEQYNLKSNSITIPEHTILNDLVTENRDCVYLLKSGILAGYIDFDNDKIYSIFTSNFFMGYYTIFDNASLVLTYQTLTECELIIYKKKDIEYSLSLFPENFSFQYTIMRTIAKHGYYKSLLQYRDKKDQLAFVFEMLVKILDIPVEDGVAVLPKSISTTVIKNYCTLSKAFFYSQLKELKEAGIISKVKLQWRINMEALSEKNNSIN", "value_measured": "not soluble"}
